Attribution: PubChem BioAssay (NCI)

# Test system: A498 renal
# Method Description: NCI-60 one-dose screen, 48 h (100 = growth as untreated, 0 = no growth, -100 = all killed)
# Measurement Setup: 10 µM unless noted
About 83,000 compounds went through this panel and 20% of them were active in at least one assay; those are over-represented in the sample as a whole.
# growth per entry
Please give a number only; it is taken to be in %.

Qu. Quickly give me recorded growth for CN1CCN(CC#CCn2c3c(c4ccccc42)C[C@]2(C)[C@H]4CC[C@@H]5[C@H]6[C@H]7OC(=O)[C@@]6(CCC7(C)C)CC[C@@]5(C)[C@]4(C)CC[C@H]2C3(C)C)CC1
Ans. 71.6

Qu. Quickly give me recorded growth for N#C/C(=C\c1ccc(-c2ccc(Cl)cc2)o1)c1nc(-c2ccco2)cs1
Ans. 108

Qu. Quickly give me recorded growth for Cc1cc(Cl)nc(N(CCNc2ccnc3cc(Cl)ccc23)Cc2ccco2)n1
Ans. 70.2

Qu. Quickly give me recorded growth for O=C(CCCCCn1c2ccccc2c2c3c(c4c5ccccc5[nH]c4c21)C(=O)N(O)C3=O)N1CCOCC1
Ans. 26.9

Qu. Quickly give me recorded growth for O=[N+]([O-])c1cc(S(=O)(=O)c2ccc(F)c([N+](=O)[O-])c2)ccc1F
Ans. 107

Further cases:
Qu. Quickly give me recorded growth for COc1ccc(/C=C/C(=O)c2ccc([N+](=O)[O-])cc2)cc1
Ans. 107

* * *

# Tested on: NCI-H522 lung
# Method Description: NCI-60 one-dose screen, 48 h (100 = growth as untreated, 0 = no growth, -100 = all killed)
# Measurement Setup: 10 µM unless noted
This is part of a sample that, as a whole, favours compounds with a hit. Of some 83,000 tested, about 20% had one in any assay.
# growth per entry
Please give a number only; it is taken to be in %.

Illustrative cases are given below, each with its answer.
Qu. Quickly give me recorded growth for COc1cccc(-c2nn(-c3ccccc3)cc2-c2ccnc(NCCCO)c2)c1
Ans. 18

Qu. Quickly give me recorded growth for Cc1cc(Cl)c2c(N(C)C)cccc2n1
Ans. -75.5

Qu. Quickly give me recorded growth for O=S(=O)(NCCNc1cc(-c2cn(-c3ccccc3)nc2-c2cccc(O)c2)ccn1)c1ccc(F)cc1
Ans. 4.98

Qu. Quickly give me recorded growth for C#CCC(C)(O)/C=C/C1=C(C)CCCC1(C)C (stereo not given)
Ans. 75.5

Qu. Quickly give me recorded growth for CCSc1sc(-c2ccc(C)cc2)nc1[P+](c1ccccc1)(c1ccccc1)c1ccccc1
Ans. -10.4

Further cases:
Qu. Quickly give me recorded growth for CCC(CC)C(=O)OC(C)COc1ccc(C(C)(C)C)cc1 (stereo not given)
Ans. 70.5

Qu. Quickly give me recorded growth for COc1ccc(/C=C/C(=O)NCCO)cc1
Ans. 82

* * *

# Test system: T-47D breast
# Method Description: NCI-60 one-dose screen, 48 h (100 = growth as untreated, 0 = no growth, -100 = all killed)
# Measurement Setup: 10 µM unless noted
The panel holds about 83,000 compounds, 20% with a hit somewhere; the sample as a whole holds those more often.
Respond with condition met for growth values of 10% and above, condition not met for values below.

Qu. Check this compound for growth at or above 10%: CN(C)c1ccc(N=C2C=CC(=O)C=C2)cc1
Ans. condition met

Qu. Check this compound for growth at or above 10%: O=C(N/N=C/c1ccccc1SSc1ccccc1/C=N/NC(=O)c1ccccc1)c1ccccc1
Ans. condition met

Qu. Check this compound for growth at or above 10%: COc1ccc2c(c1)c(-c1nc(-c3cn(C)c4ncccc34)cs1)cn2CCN
Ans. condition not met

Qu. Check this compound for growth at or above 10%: O=S(=O)(NCCNc1cc(-c2cn(-c3ccccc3)nc2-c2cccc(O)c2)ccn1)c1ccc(Cl)cc1
Ans. condition met

Qu. Check this compound for growth at or above 10%: COc1ccc(OCC(CO)N2CCN(c3ccccc3)CC2)cc1 (centres undefined)
Ans. condition met

Qu. Check this compound for growth at or above 10%: C=C(C)[C@@H]1CC[C@]2(C(=O)O)CC[C@]3(C)[C@H](CC[C@@H]4[C@@]5(C)C/C(=C/c6ccc(OC)cc6)C(=O)C(C)(C)[C@@H]5CC[C@]43C)[C@@H]12
Ans. condition met
